Consider the following compounds; for each one, report its IC50.
system: human dermal fibroblasts; assay: Collagen contraction test (in vitro skin cell toxicity screening); assay type: cell-based; details: Fibroblast; collagen sheets containing human dermal fibroblasts; read-out: IC50 (concentration at which shrinkage is 50% of the control)
Numbers only, in µM.

CCCCCCCCCCCCN1CCCCCC1=O [C12, 1-dodecylazacycloheptan-2-one, reference compound] | 240

// next item, IC50 requested
Enquiry: What value of IC50 has been recorded for this entry: CCCCCCCC/C=C\CCCCCCCCN1CCCCCC1=O
Return: 800
